# Lookup of reported PBM binding z-score keyed by entry
tested on: LXRb:RXRa (NR concentration 270 nM, RXRa partner concentration 90 nM); experiment: PBM binding z-score (relative to random genomic background probes); higher = stronger binding; sequences stand for … in GC…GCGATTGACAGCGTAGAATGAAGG

# ordered-residues, PBM binding z-score
rows = [
    ("TCATATAGGTAAAAGGTGATAGTCGGTGTGGTAA", 1.35),
    ("ACTATTAGTTGAGACGAGGCCAACCGATAGGTTG", -0.0266),
    ("AGAACGAGGGCAATGAGTTAATAGCACGGGTGGC", -0.11),
]

* * *

test system: PPARg:RXRa 30nM:10nM, anti-RXR (NR concentration 30 nM, RXRa partner concentration 10 nM); assay: PBM binding z-score (relative to random genomic background probes); higher = stronger binding; sequences stand for … in GC…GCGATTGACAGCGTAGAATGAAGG
Kindly note that classification relies on PBM binding z-score with these boundaries: c1 = under 0.2, c2 = from 0.2 up to 1, c3 = 1 and over

# ordered-residues, classification
records = [
    ("CGAACTAGGTCATCCAGGACAGTCAATACATTGA", "c3"),
    ("GCTGCTAGGTCAGGTTGGTCAGCTGACGGGTACG", "c1"),
    ("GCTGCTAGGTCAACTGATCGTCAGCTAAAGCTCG", "c2"),
    ("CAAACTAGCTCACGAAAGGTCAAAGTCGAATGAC", "c3"),
    ("TCATACAGGTGAAGGTAACTCAGGTACGCAGTCG", "c3"),
    ("CCTAGCAGGCCAGTGTCACTCAAGCATTTCGCTT", "c1"),
    ("CCTGCTAGGTCAATAGTCAGCTAAAGCAGCTCGC", "c2"),
    ("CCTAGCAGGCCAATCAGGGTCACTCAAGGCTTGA", "c1"),
    ("ATCGAAAGGACGAAGGTGAGTATACCCACCCGAA", "c2"),
    ("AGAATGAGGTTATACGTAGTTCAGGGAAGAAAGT", "c2"),
    ("TAGCCTAGGTCAGATCGGACCAGTATACGCTATA", "c1"),
    ("CCTAGTTGGTCAGGCGGTCACACACCGGATATGA", "c1"),
    ("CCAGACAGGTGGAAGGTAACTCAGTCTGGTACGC", "c1"),
    ("AGAACGAGGGCACGCTGAGTTTATAGCAGAGTAG", "c2"),
    ("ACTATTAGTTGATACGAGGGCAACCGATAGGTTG", "c2"),
    ("CATACAGCGTCAGCTAGGCCAGAGTAGGGACGGC", "c1"),
    ("ATCGAAAGGTCGAAGGTGAGTTTACCCACCCGAA", "c3"),
    ("TTACCAAGGTGAGCTGAGGTTGTTGATCCAACTC", "c1"),
    ("TCGAGTAGGTTAGTCGGGGCATACAGCCAACATA", "c3"),
    ("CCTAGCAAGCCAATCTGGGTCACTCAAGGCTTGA", "c1"),
    ("TCTGCTAGGTCAACGGTGGTCAGCTAATCTGCTA", "c3"),
    ("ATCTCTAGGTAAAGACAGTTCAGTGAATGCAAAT", "c1"),
    ("TCTCGGAGGGCACGAAGGTCAGAGCTTTCCAGAG", "c3"),
    ("TCGAGTAGGTTACCAATGGGCCATTCAGCTTTCT", "c2"),
    ("AGAATGAGGGCAATGAGTTGATAGCACGGGTGGC", "c1"),
    ("ACAGACAGGAGATGAAGGTAACTCAGGCTATCAT", "c2"),
    ("TATACAGGGTCAAAGGCCAGAGCACGAATGTCGA", "c3"),
    ("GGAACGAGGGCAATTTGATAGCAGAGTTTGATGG", "c1"),
    ("TATACAGCGTCAAAGGCCAGAGTACGAATGTCGA", "c2"),
    ("TCAAGTAGGTTACCAATGGGGCATTCAGCTTTCT", "c3"),
    ("CATACAGGGTCAGCTAGGCCAGTGTAGGGACGGC", "c2"),
    ("ATCTCTAGGTAACCTAGTTCAGTGAATGCCGAAC", "c2"),
    ("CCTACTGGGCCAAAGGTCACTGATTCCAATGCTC", "c3"),
    ("CGGCCAAGGTCAGCAGGTCAGTGAAAGCGACGTG", "c2"),
    ("CGAACTAGGTTATTGACAGGACAGTGAATAGTAA", "c2"),
    ("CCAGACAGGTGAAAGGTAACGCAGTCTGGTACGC", "c3"),
    ("CGTCCAAGGTCAATGGTCAGTGAAGAGATGACGG", "c3"),
    ("GCTAGTTGGTCAGTGAAAGGTCACACACCGGTCG", "c3"),
    ("ATCTCTAGGTAAAGTCCAGTGAAAGATCGATAGA", "c2"),
    ("AATACAGGGTCATCGCAGGCCAGAGTACGCACAG", "c3"),
    ("CAAACTAGGTCAAAGATCAAAGTCGAGCCAACCA", "c3"),
    ("GCGACTGGGGTAAAGCAGGTTACCATAAGGTTGG", "c1"),
    ("CCTACTGGGCCACGAAAGGTCATTTATTCAGTGA", "c3"),
]

* * *

Each record here notes measured PBM binding z-score.
system: RARg homodimer (NR concentration 270 nM); experiment: PBM binding z-score (relative to random genomic background probes); higher = stronger binding; sequences stand for … in GC…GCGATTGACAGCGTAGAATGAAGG

# ordered-residues, PBM binding z-score
data = [
    ("TCGAGTGGGTTACCAATGGGGCATTCAGCTTTCT", -0.504),
    ("CGTCCAAGGTCAATGTCAGTGAAAGAGACTCGAA", 5.96),
    ("CCTAGTTGGTCACGGTCACACACGCTATAGGTAC", 2.25),
    ("TCTAGTTAGTCAAAGGTCACACACTCGAAATGCG", 5.68),
    ("ATCTCTATGTAACCAAGTTCAGTGAATGCCGAAC", 0.659),
    ("GCTAGTTGGTCAGTAAAAGGTCACACATCGGTCG", 4.73),
    ("TCTGCTAGGTAAGTTGGTCAGCTAACGAGCTGCC", -0.71),
    ("CCTTACGGGTCACTGCCAGGTTATAGCATTTGGA", 4.16),
    ("CTACCAAGGTGAACAATGTCGTTGATTACTATTC", 0.812),
    ("CCTAGTTGGTCAAAGTCACACACGCTATAGGTAC", 1.23),
    ("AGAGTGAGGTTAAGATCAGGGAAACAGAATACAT", 1.68),
    ("AGAATGAGGTTGTTAAGATCAGGGAATTGCGGTC", -0.0271),
    ("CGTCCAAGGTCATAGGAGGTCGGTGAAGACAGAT", 6.48),
    ("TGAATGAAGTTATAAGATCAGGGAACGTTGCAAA", -0.101),
    ("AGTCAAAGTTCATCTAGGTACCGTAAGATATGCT", 5.76),
    ("CTCGAAATGTCGGTTGAGGTGAGTATACGGATAA", 0.341),
]

* * *

test system: PXR:RXRa (NR concentration 270 nM, RXRa partner concentration 90 nM); assay: PBM binding z-score (relative to random genomic background probes); higher = stronger binding; sequences stand for … in GC…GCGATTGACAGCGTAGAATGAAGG
outcome-measure: PBM binding z-score

# ordered-residues, experimental-system, value-reported
data = [
    ("CTAACTAGGTCAAAGGTCAAAGTCGAGCCAACCA", "PXR:RXRa (NR concentration 270 nM, RXRa partner concentration 90 nM)", 7.03),
    ("CGTCCAAGGTCAAGGTCAGTTAAAGAGACTCGAA", "PXR:RXRa (NR concentration 270 nM, RXRa partner concentration 90 nM)", 5.2),
    ("CAAACTAGGTAAAGAGGTCAAAGTCCGCTTCCCG", "PXR:RXRa (NR concentration 270 nM, RXRa partner concentration 90 nM)", 5.5),
    ("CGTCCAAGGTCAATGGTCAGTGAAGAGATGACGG", "PXR:RXRa (NR concentration 270 nM, RXRa partner concentration 90 nM)", 3.33),
    ("CCTGCTAGGTCAATGGTCAGATAAAGCAGCTCGC", "PXR:RXRa (NR concentration 270 nM, RXRa partner concentration 90 nM)", 0.646),
    ("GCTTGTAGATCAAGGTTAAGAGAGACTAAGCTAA", "PXR:RXRa (NR concentration 270 nM, RXRa partner concentration 90 nM)", 0.187),
    ("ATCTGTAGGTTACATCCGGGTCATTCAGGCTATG", "PXR:RXRa (NR concentration 270 nM, RXRa partner concentration 90 nM)", 3.52),
    ("AGAATGAGGTAAAGATCAGGGAAACAGAATACAT", "PXR:RXRa (NR concentration 270 nM, RXRa partner concentration 90 nM)", 0.125),
    ("TCTGCAAGGTCAACGATGGTCAGCTAATCTGCTA", "PXR:RXRa (NR concentration 270 nM, RXRa partner concentration 90 nM)", 4.57),
    ("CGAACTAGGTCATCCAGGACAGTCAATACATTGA", "PXR:RXRa (NR concentration 270 nM, RXRa partner concentration 90 nM)", 2.25),
    ("ATACCAAGGTGATCGTGAGGTCGTTGAAACTAAC", "PXR:RXRa (NR concentration 270 nM, RXRa partner concentration 90 nM)", 3.33),
    ("AGAACGAGGGCAATGAGTTGATAGGACGGGTGGC", "PXR:RXRa (NR concentration 270 nM, RXRa partner concentration 90 nM)", 1.12),
    ("AATATTAGTTGAGACGAGGGCAACCGATAGGTTG", "PXR:RXRa (NR concentration 270 nM, RXRa partner concentration 90 nM)", 1.71),
    ("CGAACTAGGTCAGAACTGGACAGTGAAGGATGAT", "PXR:RXRa (NR concentration 270 nM, RXRa partner concentration 90 nM)", 0.313),
    ("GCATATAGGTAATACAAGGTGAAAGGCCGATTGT", "PXR:RXRa (NR concentration 270 nM, RXRa partner concentration 90 nM)", 0.592),
    ("TCTCGTAGATCAGCAGGTTAAGAAAGCTGGCCAA", "PXR:RXRa (NR concentration 270 nM, RXRa partner concentration 90 nM)", -0.00394),
    ("TCATATAGGTAAACAGGTGAATGTCCGTAAGTTA", "PXR:RXRa (NR concentration 270 nM, RXRa partner concentration 90 nM)", 0.702),
    ("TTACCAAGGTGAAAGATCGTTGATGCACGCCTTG", "PXR:RXRa (NR concentration 270 nM, RXRa partner concentration 90 nM)", 0.0637),
    ("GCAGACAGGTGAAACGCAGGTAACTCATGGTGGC", "PXR:RXRa (NR concentration 270 nM, RXRa partner concentration 90 nM)", -0.113),
    ("CCGACTGGGGCATAAGTTTACCATAAGCCAGCCC", "PXR:RXRa (NR concentration 270 nM, RXRa partner concentration 90 nM)", -0.336),
    ("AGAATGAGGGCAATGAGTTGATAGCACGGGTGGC", "PXR:RXRa (NR concentration 270 nM, RXRa partner concentration 90 nM)", 1.89),
]
